Biological target: T1, FLI1 F362A 276-399 (UniProt Q01543 276-399, F362A)
T1 sequence: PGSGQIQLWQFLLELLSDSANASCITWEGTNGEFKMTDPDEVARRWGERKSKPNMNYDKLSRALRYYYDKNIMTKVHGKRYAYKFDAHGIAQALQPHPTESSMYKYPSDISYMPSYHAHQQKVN
Experiment: fluorescence anisotropy
pKd: −log10 of the molar value.
measurement.label: pKd

> print(dat)
                                     binder  measured.value
1  1site_weak (dsDNA) DNA 1: TTGAAGGAAGAG DNA 2: CTCTTCCTTCAA            6.84

All figures here come from paper PMC11934925.
